src = patent US4777167A

system.tested: calcium channels (Oryctolagus cuniculus, UniProt P15381)
Construct: from tissue; host or cells: heart of female New Zealand white rabbits, membrane fraction (42,000×g pellet)
Sequence (P15381 whole entry, other chains not shown): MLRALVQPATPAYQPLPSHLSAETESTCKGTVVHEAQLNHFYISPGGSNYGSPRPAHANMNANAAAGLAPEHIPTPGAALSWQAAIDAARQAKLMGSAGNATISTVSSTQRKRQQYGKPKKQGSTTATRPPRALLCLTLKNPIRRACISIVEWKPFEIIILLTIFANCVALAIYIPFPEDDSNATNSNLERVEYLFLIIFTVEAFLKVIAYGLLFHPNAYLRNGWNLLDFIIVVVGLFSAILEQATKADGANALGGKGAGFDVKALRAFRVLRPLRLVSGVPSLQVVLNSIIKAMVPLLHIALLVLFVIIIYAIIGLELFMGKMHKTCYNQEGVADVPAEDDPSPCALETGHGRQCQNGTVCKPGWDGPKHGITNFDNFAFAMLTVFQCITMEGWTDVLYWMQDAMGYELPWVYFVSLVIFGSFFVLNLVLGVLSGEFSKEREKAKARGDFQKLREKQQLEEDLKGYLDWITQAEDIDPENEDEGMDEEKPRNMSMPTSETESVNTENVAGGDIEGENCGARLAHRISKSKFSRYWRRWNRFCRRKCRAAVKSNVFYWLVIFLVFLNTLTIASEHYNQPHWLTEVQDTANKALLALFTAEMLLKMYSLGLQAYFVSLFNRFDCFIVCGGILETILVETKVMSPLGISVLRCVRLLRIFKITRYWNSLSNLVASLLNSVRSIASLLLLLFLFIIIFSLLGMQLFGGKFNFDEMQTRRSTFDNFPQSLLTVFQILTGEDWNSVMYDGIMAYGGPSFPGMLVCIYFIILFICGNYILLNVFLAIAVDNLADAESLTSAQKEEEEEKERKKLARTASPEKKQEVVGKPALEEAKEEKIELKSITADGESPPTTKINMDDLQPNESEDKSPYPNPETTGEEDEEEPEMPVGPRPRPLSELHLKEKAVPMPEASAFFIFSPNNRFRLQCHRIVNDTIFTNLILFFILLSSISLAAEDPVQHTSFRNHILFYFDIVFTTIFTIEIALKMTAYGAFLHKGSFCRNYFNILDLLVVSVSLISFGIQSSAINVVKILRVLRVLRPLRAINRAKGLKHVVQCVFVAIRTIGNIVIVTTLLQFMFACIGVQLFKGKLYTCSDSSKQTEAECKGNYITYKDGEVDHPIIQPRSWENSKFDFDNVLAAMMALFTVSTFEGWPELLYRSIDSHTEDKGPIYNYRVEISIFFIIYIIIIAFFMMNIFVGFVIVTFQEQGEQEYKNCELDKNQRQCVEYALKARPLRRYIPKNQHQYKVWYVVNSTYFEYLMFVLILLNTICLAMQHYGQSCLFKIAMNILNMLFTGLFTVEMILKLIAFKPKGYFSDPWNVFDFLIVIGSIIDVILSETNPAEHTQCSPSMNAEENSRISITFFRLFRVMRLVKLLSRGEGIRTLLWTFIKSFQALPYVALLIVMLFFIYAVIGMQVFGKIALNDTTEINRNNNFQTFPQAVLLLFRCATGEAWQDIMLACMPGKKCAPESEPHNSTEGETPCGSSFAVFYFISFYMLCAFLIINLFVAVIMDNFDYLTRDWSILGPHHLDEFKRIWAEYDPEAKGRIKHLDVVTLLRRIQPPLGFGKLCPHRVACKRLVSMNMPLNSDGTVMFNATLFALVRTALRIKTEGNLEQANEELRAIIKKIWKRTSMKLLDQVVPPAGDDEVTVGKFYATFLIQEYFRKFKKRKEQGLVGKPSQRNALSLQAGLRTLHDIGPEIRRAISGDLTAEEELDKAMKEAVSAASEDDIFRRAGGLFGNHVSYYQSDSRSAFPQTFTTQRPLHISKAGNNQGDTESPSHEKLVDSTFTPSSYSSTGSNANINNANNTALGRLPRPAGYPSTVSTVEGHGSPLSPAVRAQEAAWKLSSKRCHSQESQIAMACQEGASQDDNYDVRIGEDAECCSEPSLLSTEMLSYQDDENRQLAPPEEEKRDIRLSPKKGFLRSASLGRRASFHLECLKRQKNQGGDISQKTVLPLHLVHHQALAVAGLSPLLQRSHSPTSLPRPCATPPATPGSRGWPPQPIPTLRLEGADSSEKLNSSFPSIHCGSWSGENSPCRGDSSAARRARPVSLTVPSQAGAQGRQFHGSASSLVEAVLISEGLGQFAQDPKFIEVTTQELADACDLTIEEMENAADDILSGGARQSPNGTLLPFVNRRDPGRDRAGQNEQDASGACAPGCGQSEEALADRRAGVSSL
Sequence (P13806 27-960 partner limits assumed, other chains not shown): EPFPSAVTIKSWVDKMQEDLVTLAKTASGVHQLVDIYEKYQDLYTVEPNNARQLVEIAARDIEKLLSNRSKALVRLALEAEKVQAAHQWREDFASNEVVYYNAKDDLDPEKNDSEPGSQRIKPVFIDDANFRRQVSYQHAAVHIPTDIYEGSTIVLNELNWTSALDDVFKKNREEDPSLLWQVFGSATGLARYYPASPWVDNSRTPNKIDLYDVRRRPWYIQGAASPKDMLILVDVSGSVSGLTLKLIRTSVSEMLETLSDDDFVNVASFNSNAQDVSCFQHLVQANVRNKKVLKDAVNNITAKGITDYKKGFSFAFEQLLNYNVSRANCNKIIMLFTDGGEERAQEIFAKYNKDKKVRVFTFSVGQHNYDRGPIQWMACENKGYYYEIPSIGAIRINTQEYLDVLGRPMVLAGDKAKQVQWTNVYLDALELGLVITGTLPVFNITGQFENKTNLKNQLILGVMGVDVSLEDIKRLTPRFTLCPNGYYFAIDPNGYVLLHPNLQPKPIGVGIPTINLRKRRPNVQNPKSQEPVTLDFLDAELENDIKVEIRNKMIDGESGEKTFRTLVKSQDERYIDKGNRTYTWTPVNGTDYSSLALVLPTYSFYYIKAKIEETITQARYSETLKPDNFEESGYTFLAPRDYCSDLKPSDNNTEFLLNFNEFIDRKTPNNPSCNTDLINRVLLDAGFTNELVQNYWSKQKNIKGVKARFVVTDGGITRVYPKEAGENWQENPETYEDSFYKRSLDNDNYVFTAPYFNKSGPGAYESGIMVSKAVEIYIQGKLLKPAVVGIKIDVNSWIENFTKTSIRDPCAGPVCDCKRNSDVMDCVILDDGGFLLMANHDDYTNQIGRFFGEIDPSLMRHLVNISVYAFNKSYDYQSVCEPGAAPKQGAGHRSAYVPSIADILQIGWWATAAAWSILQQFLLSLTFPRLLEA
Sequence (P13806 961-1106 partner limits assumed, other chains not shown): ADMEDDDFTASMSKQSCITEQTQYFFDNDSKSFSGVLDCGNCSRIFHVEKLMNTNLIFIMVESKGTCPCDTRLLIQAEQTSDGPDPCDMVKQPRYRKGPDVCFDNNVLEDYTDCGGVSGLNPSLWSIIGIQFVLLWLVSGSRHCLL
protocol.summary: Inhibition of nitrendipine binding (3H-nitrendipine displacement, rabbit heart membranes)
Set-up: species or system rabbit (New Zealand white)
condition.info: Table II, 90 min, 4° C.
The label is satisfied for IC50 below 90 nM and not satisfied for IC50 equal to or exceeding 90 nM.

Illustrative cases are given below, each with its answer.
CC1=C(C(=O)OCCN(C)c2ccccc2)C(c2ccccc2[N+](=O)[O-])C2=C(CCCCS2(=O)=O)N1 (stereo not drawn); satisfied
CC1=C(C(=O)OCCc2ccccn2)C(c2cccc([N+](=O)[O-])c2)C2=C(CCCCCS2(=O)=O)N1 (stereo not drawn) [5 3-NO2C6 H4 drawing 10]; satisfied
CC1=C(C(=O)OCCN(C)Cc2ccccc2)C(c2cc(F)ccc2F)C2=C(CCCCS2(=O)=O)N1 (stereo not drawn); not satisfied
CC1=C(C(=O)OCCN(C)Cc2ccccc2)C(c2c(F)c(F)c(F)c(F)c2F)C2=C(CCCCCS2(=O)=O)N1 (stereo not drawn); satisfied
CC1=C(C(=O)OCCN(C)Cc2ccccc2)C(c2cccc(Cl)c2Cl)C2=C(CCCCCS2(=O)=O)N1 (stereo not drawn); satisfied

In the following, a different molecule is considered.
Task: Hello, I'm reviewing records and need to know if IC50 of CC1=C(C(=O)OCCN(C)Cc2ccccc2)C(c2ccccc2C(F)(F)F)C2=C(CCCCS2(=O)=O)N1 (stereo not drawn) is below 90 nM. Could you check?
Result: not satisfied
